assay: The drug is tested on Dorea formicigenerans strain: ATCC27755 for biotransformation. The drug concentrations were measured before and after a 12-h incubation by liquid-chromatography-coupled mass spectrometry (LC–MS); conditions: 2 µM
Value type: Bacterial Biotransformation

These recorded examples may help you get a feel for the data.
Give the measured Bacterial Biotransformation of C[C@@H]1CC[C@H]2[C@@H](C)C(=O)O[C@@H]3O[C@@]4(C)CC[C@@H]1[C@]32OO4 .
Compound metabolized

Could you share which Bacterial Biotransformation value was measured for CC(=O)OCC(=O)NCCCOc1cccc(CN2CCCCC2)c1 [ROXATIDINE ACETATE] ?
Compound metabolized

Given NC(CO)(CO)CO.O=C(c1ccccc1)c1ccc2n1CCC2C(=O)O (stereo unspecified) , state its recorded Bacterial Biotransformation.
Compound NOT metabolized

Given C=CC[C@@H]1/C=C(\C)C[C@H](C)C[C@H](OC)[C@H]2O[C@@](O)(C(=O)C(=O)N3CCCC[C@H]3C(=O)O[C@H](/C(C)=C/[C@@H]3CC[C@@H](O)[C@H](OC)C3)[C@H](C)[C@@H](O)CC1=O)[C@H](C)C[C@@H]2OC.O , state its recorded Bacterial Biotransformation.
Compound NOT metabolized

Sample CCCN1C[C@H](CSC)C[C@@H]2c3cccc4[nH]cc(c34)C[C@H]21.CS(=O)(=O)O [PERGOLIDE MESYLATE] — what was its Bacterial Biotransformation?
Compound NOT metabolized

Returns the measured Bacterial Biotransformation for the input compound. Input: N#Cc1ccc2[nH]cc(CCCCN3CCN(c4ccc5oc(C(N)=O)cc5c4)CC3)c2c1
Compound NOT metabolized

Param item = CC(C)c1nc(CN(C)C(=O)N[C@H](C(=O)N[C@@H](Cc2ccccc2)C[C@H](O)[C@H](Cc2ccccc2)NC(=O)OCc2cncs2)C(C)C)cs1 ; retrieve measured Bacterial Biotransformation.
Compound NOT metabolized

Name the reported Bacterial Biotransformation value associated with the compound Cc1ccnc2c1NC(=O)c1cccnc1N2C1CC1
Compound NOT metabolized

// Bacterial Biotransformation lookup, key: COc1ccc2c3c1O[C@H]1C[C@@H](O)C=C[C@@]31CCN(C)C2
Compound NOT metabolized

So what's the measured Bacterial Biotransformation for this one? CNNCc1ccc(C(=O)NC(C)C)cc1
Compound NOT metabolized

***
May I ask what Bacterial Biotransformation has been recorded for CCCCC(=O)N(Cc1ccc(-c2ccccc2-c2nnn[nH]2)cc1)[C@H](C(=O)O)C(C)C ?
Compound NOT metabolized

* * *

assay: The drug is tested on Bacteroides pectinophilus strain: ATCC43243 for biotransformation. The drug concentrations were measured before and after a 12-h incubation by liquid-chromatography-coupled mass spectrometry (LC–MS); settings: 2 µM
Value type: Bacterial Biotransformation

Recorded results for 4 compounds are shown here.
Report Bacterial Biotransformation for O=P(O)(O)O.c1ccc(CN(CC2=NCCN2)c2ccccc2)cc1 [ANTAZOLINE PHOSPHATE] please.
Compound NOT metabolized

Would you kindly share the measured Bacterial Biotransformation for O=C(Nc1ccccc1)OCC(CN1CCCCC1)OC(=O)Nc1ccccc1 (stereo not given) [DIPERODON] ?
Compound NOT metabolized

Any idea what Bacterial Biotransformation was measured for CC(C)(C)NCC(O)COc1cccc2c1CC(O)C(O)C2 (stereo not given) [NADOLOL] ?
Compound NOT metabolized

What value of Bacterial Biotransformation has been reported for the following compound? CC(Oc1c(Cl)cccc1Cl)C1=NCCN1 (stereo not given) [LOFEXIDINE]
Compound metabolized

Next:
Consider the compound N[C@@H](Cc1ccc(N(CCCl)CCCl)cc1)C(=O)O and give its measured Bacterial Biotransformation.
Compound metabolized

Recorded Bacterial Biotransformation of CCOC(=O)C1=C[C@]2(CC)CCCN3CCc4c(n1c1ccccc41)[C@@H]32 [VINPOCETINE] , please.
Compound NOT metabolized

I would be grateful if you could share the reported Bacterial Biotransformation for CCOC(=O)C1=C(C)NC(C)=C(C(=O)OC)C1c1cccc([N+](=O)[O-])c1 (stereo not given) [NITRENDIPINE] .
Compound metabolized

Any idea what its Bacterial Biotransformation is? The compound is CC(=O)O[C@]1(C(C)=O)CC[C@H]2[C@@H]3C=C(Cl)C4=CC(=O)[C@@H]5C[C@@H]5[C@]4(C)[C@H]3CC[C@@]21C [CYPROTERONE ACETATE]
Compound metabolized

Could you tell me which Bacterial Biotransformation is on file for CCN(CC)CCNC(=O)c1cc(S(C)(=O)=O)ccc1OC [TIAPRIDE] ?
Compound NOT metabolized

Which Bacterial Biotransformation value belongs to Br.COc1ccc2c(c1)[C@]13CCCC[C@@H]1[C@H](C2)N(C)CC3.O [DEXTROMETHORPHAN HYDROBROMIDE] ?
Compound NOT metabolized

* * *

assay: The drug is tested on Bacteroides fragilis strain: HMW615 for biotransformation. The drug concentrations were measured before and after a 12-h incubation by liquid-chromatography-coupled mass spectrometry (LC–MS); settings: 2 µM
Value type: Bacterial Biotransformation

Here are 8 compounds together with their reported answers.
Entry CCCC1O[C@@H]2C[C@H]3[C@@H]4CCC5=CC(=O)C=C[C@]5(C)[C@H]4[C@@H](O)C[C@]3(C)[C@]2(C(=O)CO)O1 (stereo partly drawn) [BUDESONIDE] : reported Bacterial Biotransformation = ?
Compound metabolized

Returns the measured Bacterial Biotransformation for the input compound. Input: Cc1ccnc2c1NC(=O)c1cccnc1N2C1CC1
Compound NOT metabolized

Given CC(=O)OCC(=O)[C@@]1(OC(C)=O)[C@@H](C)C[C@H]2[C@@H]3C[C@H](F)C4=CC(=O)C=C[C@]4(C)[C@@]3(F)[C@@H](O)C[C@@]21C [DIFLORASONE DIACETATE] , state its recorded Bacterial Biotransformation.
Compound metabolized

I'd like to know its Bacterial Biotransformation. The compound in question is O=C1CN2Cc3c(ccc(Cl)c3Cl)N=C2N1 [ANAGRELIDE]
Compound NOT metabolized

Entry CCCCCNC(=N)N/N=C/c1c[nH]c2ccc(OC)cc12.O=C(O)/C=C\C(=O)O [TEGASEROD MALEATE] : reported Bacterial Biotransformation = ?
Compound NOT metabolized

Entry COc1cc(NC(C)CCCN)c2ncccc2c1.O=P(O)(O)O.O=P(O)(O)O (stereo not drawn) [PRIMAQUINE PHOSPHATE] has what Bacterial Biotransformation?
Compound NOT metabolized

Look up Bacterial Biotransformation for this compound: CCc1nn(CCCN2CCN(c3cccc(Cl)c3)CC2)c(=O)n1CCOc1ccccc1
Compound NOT metabolized

Endpoint output: Bacterial Biotransformation of NS(=O)(=O)c1cc2c(cc1Cl)N=C(CSCc1ccccc1)NS2(=O)=O [BENZTHIAZIDE] . Value?
Compound NOT metabolized

More entries:
Consider the compound shown here: COc1ccccc1OCCNCC(O)COc1cccc2[nH]c3ccccc3c12 (stereo not drawn) What is its recorded Bacterial Biotransformation?
Compound metabolized

Which Bacterial Biotransformation is reported for this compound? CCN1CCCC1CNC(=O)c1cc(S(=O)(=O)CC)c(N)cc1OC (stereo not drawn) [AMISULPRIDE]
Compound NOT metabolized

* * *

test: The drug is tested on the gut metagenome community of MV06 with ENA study accession number: PRJEB31790 and ENA sample accession number: SAMEA5537487 for biotransformation. The drug concentrations were measured over 9 timepoints collected between 0 and 24 hours of incubation by liquid-chromatography-coupled mass spectrometry (LC–MS); format: ADME; set-up: dose 2 uM, timepoint 0, 1, 2, 4, 6, 8, 12, 18, 24 hours; details: 2 µM
Value type: Bacterial Biotransformation

Quick check: Bacterial Biotransformation of C[C@@H]1C[C@H]2[C@@H]3CCC4=CC(=O)C=C[C@]4(C)[C@@]3(F)[C@@H](O)C[C@]2(C)[C@@]1(O)C(=O)CO [DEXAMETHASONE] ?
Compound NOT metabolized

For C#C[C@]1(OC(C)=O)CC[C@H]2[C@@H]3CCC4=CC(=O)CC[C@@H]4[C@H]3CC[C@@]21C [NORETHINDRONE ACETATE] , what is its reported Bacterial Biotransformation?
Compound metabolized

Sample COc1ccc([C@@H]2Sc3ccccc3N(CCN(C)C)C(=O)[C@@H]2OC(C)=O)cc1 [DILTIAZEM] — what was its Bacterial Biotransformation?
Compound NOT metabolized

Quick one: Bacterial Biotransformation of CC(=O)OCC(CCn1cnc2cnc(N)nc21)COC(C)=O [FAMCICLOVIR] ?
Compound metabolized

* * *

test: The drug is tested on Clostridium ramosum strain: DSM1402 for biotransformation. The drug concentrations were measured before and after a 12-h incubation by liquid-chromatography-coupled mass spectrometry (LC–MS); settings: thomasclavelia ramosa, 2 µM
Value type: Bacterial Biotransformation

Entry under review: CCOc1ccc2nc(S(N)(=O)=O)sc2c1 [ETHOXZOLAMIDE] . Reported Bacterial Biotransformation?
Compound metabolized

Data request, read-out Bacterial Biotransformation, for O=C1[C@H](CC[C@H](O)c2ccc(F)cc2)[C@@H](c2ccc(O)cc2)N1c1ccc(F)cc1
Compound NOT metabolized

Requested field: Bacterial Biotransformation. Item: COC(=O)[C@H]1[C@H]2C[C@@H]3c4[nH]c5cc(OC)ccc5c4CCN3C[C@H]2C[C@@H](OC(=O)c2cc(OC)c(OC)c(OC)c2)[C@@H]1OC
Compound NOT metabolized

# query: Bacterial Biotransformation of entry CC(C)(C)NCC(O)COc1cccc2c1CC(O)C(O)C2 (centres undefined)
Compound NOT metabolized

Which Bacterial Biotransformation reading was recorded for the compound CC[C@@H](CO)NC(=O)[C@@H]1C=C2c3cccc4c3c(cn4C)C[C@H]2N(C)C1.O=C(O)/C=C\C(=O)O [METHYSERGIDE MALEATE] ?
Compound metabolized

---
Give the measured Bacterial Biotransformation of COc1ccc(CN2CCNCC2)c(OC)c1OC.Cl.Cl [TRIMETAZIDINE DIHYDROCHLORIDE] .
Compound NOT metabolized

Any idea what Bacterial Biotransformation was measured for CCOc1ccccc1OCCN[C@H](C)Cc1ccc(OC)c(S(N)(=O)=O)c1.Cl [TAMSULOSIN HYDROCHLORIDE] ?
Compound NOT metabolized

Please give the measured Bacterial Biotransformation for this compound: CN1CCc2cccc3c2[C@H]1Cc1ccc(O)c(O)c1-3
Compound NOT metabolized

Given CC(C)OC(=O)C(C)(C)Oc1ccc(C(=O)c2ccc(Cl)cc2)cc1 [FENOFIBRATE] , state its recorded Bacterial Biotransformation.
Compound NOT metabolized

GET /values?readout=Bacterial Biotransformation&item= CNCC[C@H](Oc1cccc2ccccc12)c1cccs1
Compound NOT metabolized
